All figures here come from PubChem BioAssay (NCI).

- System: ACHN renal
- measurementNotes: NCI tumour cell line growth inhibition, 48 h; in the data active = GI50 below about 0.43 µM; inactive = the rest
Classes used: active, inactive

* CCCCCN(CCCCC)CC(O)c1cc(Cl)ccc1OC (centres undefined) | inactive
* COc1ccc(Nc2nc3ccccc3c3occc23)cc1 | inactive
* O=c1c2cc(-c3ccccc3)sc2ncn1Cc1ccc(Cl)c(Cl)c1 | inactive
* C1=C/COCc2cc(ccc2OCCN2CCCC2)Nc2nccc(n2)-c2ccc(o2)COC/1 | inactive
* NS(=O)(=O)c1ccc(N2N=C3c4ccccc4CC3C2c2cccs2)cc1 (centres undefined) | inactive
* CN1CCN(CCOc2ccc(-c3cnc4c(-c5cccc(F)c5)cnn4c3)cc2)CC1 | inactive
* CC1=C2C(=CC(C)(C)[C@@H]2O)C(=O)[C@](C)(O)C12CC2 | active
* NS(=O)(=O)c1ccc(N=Nc2c(O)[nH]c3ccc(C(=O)NCc4ccncc4)cc23)cc1 | inactive
* CCCCCCCC(=O)OCCCC1[C@]2(C)CC[C@@]3(C)C([C@H](C)CCC=C(C)C)CC[C@]3(C)C2CC[C@]12OC2(C)C (some centres undefined) | inactive
* COC(=O)C12CC(NC(=O)c3csc([C@@H](C[C@H](C(C)C)N(C)C(=O)[C@@H](NC(=O)[C@H]4CCCCN4C)C4CC4)OC(C)=O)n3)(C1)C2 | active
* NC(=O)[C@@H](CC1CC1)[C@@H](CCC(F)(F)F)C(=O)N[C@H]1N=C(c2ccccc2)c2cccc(F)c2NC1=O | inactive
* C#CCNC(=S)N/N=C(\C)c1ccccn1 | active
* CSc1ncc(Br)c(Sc2nc(N)nc3nc[nH]c23)n1 | inactive
* CCN(Cc1cc(F)ccc1F)c1ccc(CO)c(Cl)c1 | inactive
